Test system: MS2 coat protein
Assay: apparent KD of MS2 coat protein; designed switch direction (-1 OFF switch, 1 ON switch): -1; higher = weaker reporter binding
Details: input ligand: FMN 200 uM
Please provide measured apparent KD of MS2 coat protein for the entries that follow.
Reply numerically in nM, unit not repeated.

Complete the entry with apparent KD of MS2 coat protein for UGAGUGCUGCGAGGAUAUACAUGAGGAUCACCCAUGUUUAGGUGUGAGGCUUUGCCUCACACCAUGUAGAAGGCGCAGUACUCU [JL ENG2 1.07] (Eterna round: R96, puzzle: Exclusion NG 2)
16.8

Complete the entry with apparent KD of MS2 coat protein for UACAUGAGGAUCACCCAUGUCGGGUAAACGAAGGUUACUCAAGAGGAUAUAAAACCGAAAGGGUUUUAGAAGGCUUUUCCUCGA [Eternabot solution 27] (Eterna round: R96, puzzle: Exclusion NG 3)
92.3

Complete the entry with apparent KD of MS2 coat protein for AGAGGGCGAGGAUAUGCUAAAAGUGGUGCAGUUGUUCGUCGACUUGAGGAUCACCCAAGUAGAAGGCGCACUUC [Sointeer] (Eterna round: R97, puzzle: Exclusion 2)
67.9

Complete the entry with apparent KD of MS2 coat protein for AGCCCGCAAGGAGGAUAUUAACAUGAGGAUCACCCAUGUAAUCACUAGAUAGCACGGGCGGUUCGUAAGAAGGUCUAGUGGAAU [Eternabot solution 24] (Eterna round: R96, puzzle: Exclusion NG 2)
35.4

Complete the entry with apparent KD of MS2 coat protein for CAAUGAGGAGUGAGGAUAUCGUGUUCGAAAGAACGUGAGAAGGCACAUGAGGAUCACCCAUGUGAUCCUCAUUG [Omei Ex4B A24] (Eterna round: R97, puzzle: Brourd's mod of Exclusion 4)
98.2

###

Test system: MS2 coat protein
Experiment: apparent KD of MS2 coat protein; higher = weaker reporter binding
Details: Eterna round: R107; input ligand: none
Outcome Measure: apparent KD of MS2 coat protein (nM)
Reply numerically in nM, unit not repeated.

Complete the entry with apparent KD of MS2 coat protein for ACACGUGAGGAUCAUCCAUGUGCCCAUGAAGGAGCGUGGGAAACCACAGGUAGGUCGCAUGACAUGAGGAUCACCCAUGUUUAUU [#04 Exclusion - Arginine A]
86.9

Complete the entry with apparent KD of MS2 coat protein for UAUCCACAUGAGGAUCACCCAUGUAGGGAAGGAGCGGUGAUUUCACCAGGUAGGUCGCCUUACUGAGGAGAGCCGGUGGAAUCGU [Exclusion - Arginine A (Freestyle 31)]
24.9

Complete the entry with apparent KD of MS2 coat protein for GCCGGGCCUUCGGCCGCCACUGAGAGAGUCGUGUGAACAUGAGGAUCACCCAUGUAAUAUAUAUACAGGACCGGGAGGGCCCGGC [4.V]
16.3

###

System: MS2 coat protein
Assay: apparent KD of MS2 coat protein; designed switch direction (-1 OFF switch, 1 ON switch): -1; higher = weaker reporter binding
Details: input ligand: microRNA oligo, concentration not stated
Please provide measured apparent KD of MS2 coat protein for the entries that follow.
Reply numerically in nM, unit not repeated.

Report apparent KD of MS2 coat protein from MS2 coat protein testing of ACAUGAGGAUCACCCAUGUACAGGGUUUAGUUUCAUUGUUUGAAGGAUAUACUUAGUUAGUUGUUGUAGAAGGUCAUAUUUUAU [JR_ExcNG3_Sub002] (Eterna round: R96, puzzle: Exclusion NG 3)
156

Report apparent KD of MS2 coat protein from MS2 coat protein testing of UGUUGUUACGCAGGAUAUGUAUGAGGAUCACCCAUUAAUAAAUUUUAACCACGAGGAUCACCCGUGUAGAAGGGCGGGUUAACA [pwkr exNG2 2xF5 1xFMN.13] (Eterna round: R96, puzzle: Exclusion NG 2)
65

Report apparent KD of MS2 coat protein from MS2 coat protein testing of ACAUGUCAUUGAGGAUAUUGCACACAUGAGGAUCACCCAUGUAUACGGAUGCUCUUCCGUGAGUUCGAGAAGGCGAUGUACAUU [Ex NG2 #90] (Eterna round: R96, puzzle: Exclusion NG 2)
38.6

###

Test system: K4 kissing-loop RNA reporter
Assay: apparent KD of K4 kissing-loop reporter; higher = weaker reporter binding
Settings: Eterna round: R107; input ligand: arginine 13.2 mM
Outcome Measure: apparent KD of K4 kissing-loop reporter (µM)
Reply numerically in µM, unit not repeated.

Report apparent KD of K4 kissing-loop reporter from K4 kissing-loop RNA reporter testing of GCAGGACGAGGAGGAGGAUGAAUUACUGAAGGAGCGCAUAUUUUUGCAGGUAGGUCGCGGUAAAGAAGUAUAGUGAUGUUAUAUA [SSArgA.L]
0.476

Report apparent KD of K4 kissing-loop reporter from K4 kissing-loop RNA reporter testing of AACUGUCAAGGCCGACAUUACUGAGGUGAUACCAGCAUCGAAAGAUGCCCUUGGCAGCACCAACUUGCAGUGAUGUUGCAAGUAA [BrourdMod 14 - Jieux - Exclusion - Theophylline A]
0.158

Report apparent KD of K4 kissing-loop reporter from K4 kissing-loop RNA reporter testing of ACCAUUUUACCGGCAGUAGUGAUGUUACUCCGAGGACCGGUACGGCCGCCACUCGCGAACGUAGGGUCGCGCACUCAAAGAGUGC
0.0756

Report apparent KD of K4 kissing-loop reporter from K4 kissing-loop RNA reporter testing of GUUACGCAUGGAAGGAGCGCUCUCCGGUUGAUUGACACAGUGAUGUUGUGAUUCUACCGUAAGCAGGUAGGUCGCCAUGUGUAAC [Ex Arginine B K4 13]
0.809

Report apparent KD of K4 kissing-loop reporter from K4 kissing-loop RNA reporter testing of UGAUAGGAGAGAAGGAGCGGGAGUGAUGUUCCCAAAGAUUGGUCUAGCAAAGCUGGACCCUCCCAGGUAGGUCGCUCUCCUAUCU [KL-XARG-B16]
0.419

Report apparent KD of K4 kissing-loop reporter from K4 kissing-loop RNA reporter testing of AAGAAGGUCAAAGACCUUCGUGCUCGUGAUACCAGUCGCGAAAGCGGCCCUUGGCAGCACGGCAGUGAUGUUGCCAAGAGCACAA [#13 K4 Theophylline A Same State]
0.0866

###

Tested on: K4 kissing-loop RNA reporter
Assay: apparent KD of K4 kissing-loop reporter; higher = weaker reporter binding
Conditions: Eterna round: R107; input ligand: tryptophan 2.4 mM
Please provide measured apparent KD of K4 kissing-loop reporter for the entries that follow.
Reply numerically in nM, unit not repeated.

Complete the entry with apparent KD of K4 kissing-loop reporter for AGACUACUGAUAGGAUAUAACAUACUACUCGUAUACCGAAAGGUAUACGAGACCCUUCUAGUGAUGUUAGAAGGGUCGGUAGUCA [Omei KL FMN B Exc B v8]
74.7

Complete the entry with apparent KD of K4 kissing-loop reporter for GAUUUAGAGGCGGCCGCCACUAGUGAUGUUAGUGAUGUUUGAUACUGAAUAUAUCGGCGUGUAGAUAGGACCGGGCCAGAUGGAG [zwqqmullin]
203

Complete the entry with apparent KD of K4 kissing-loop reporter for GGCACUUUUGCUUGGAACCGUCAAGCUCUUUAGGAUAUCUGGAAACAGAGAAGGAAAGACCUACAGAGUGAUGUUCUGCGUGCCU
144

Complete the entry with apparent KD of K4 kissing-loop reporter for UGACUGGACUGAAGGAGCGCUAAACUCCUAGUGAUGUUAGGGAACCGAGACAAAGUCUCGAGGCAGGUAGGUCGCAGUCUAGUCU [FiskerMod 2 - Jieux - Same State - Arginine B]
288

Complete the entry with apparent KD of K4 kissing-loop reporter for UUGCAAGAGUCGGCCGCCACUCCGGGCCCUAUAAAUGGGCGCAGUGAUGUUGCGGCUAGGCCUCUGAGGACCGGGACUUUGUAGC [Ateusraor]
111

Complete the entry with apparent KD of K4 kissing-loop reporter for UAAUCCUAGUGAUCCUUAUCAAGUGGUGGGCGAGGACCGGUACGGCCGCCACUCGAAUAUGCAGUGAUGUUGUAAUCCGGAUAAU [Exclusion - Tryptophan A (Freestyle 9)]
440

###

Please provide measured apparent KD of K4 kissing-loop reporter for the entries that follow.
System: K4 kissing-loop RNA reporter;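 note: bound reporter read as fluorescence of individual clusters on recovered sequencing chips by microscopy, with normalized cluster intensities fitted with a binding model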
Assay: apparent KD of K4 kissing-loop reporter; higher = weaker reporter binding
Conditions: Eterna round: R107; input ligand: tryptophan 2.4 mM
Reply numerically in nM, unit not repeated.

Complete the entry with apparent KD of K4 kissing-loop reporter for GGUGUUGUUUGUGCCGCCUUCCUCGUUCCUCGAGGACCGGUACGGCCGCCACUCGAGUGAUGUUUGGGUAGCGAUCCCUGUUAGU [Bdazzled - #11 Exc. Tryptophan A]
778

Complete the entry with apparent KD of K4 kissing-loop reporter for GCUAUGGUAGGAAGGAGCGCUACUUUGUUUUUACGAGUGAUGUUCGGAAGCAGAGUGUUAAAGCAGGUAGGUCGCCUACUAUAGC [Arginine B K4 20]
197

Complete the entry with apparent KD of K4 kissing-loop reporter for GUGUGACUAGUGAUGUUGGUUGCGUGGGAAGGAGCGCAGUAAAAUGCAGGUAGGUCGCCCGUAUCUCUGAUAAAAGAUUAAUUCA [KL-SSArg-A10]
153

Complete the entry with apparent KD of K4 kissing-loop reporter for UUAGUUGAAAGUGAUACCAGACAAGUUAAGAGAAGAAAUUAAGUUGGAGUGAUGUUCCAAGUCCCUUGGCAGCACAUUGUAAUUU [Same State Theophylline B GF12]
126

Complete the entry with apparent KD of K4 kissing-loop reporter for GGAUAGGAUAGAGGAUAUGGGUUAGGCAAGAAUAACUUGUCUUGUAAAUCCAUGAGGAGUGAUGUUCCAGAAGGCUGUCCUAUCG [MatMod 5 - Jieux - Exclusion - FMN B]
93.6

Complete the entry with apparent KD of K4 kissing-loop reporter for CAUACGCAUGGAGGAUAUGGGAUUUCUCAUAUUAACCUGUAUCAGGUAUCUCAGUGAUGUUGAGACUCAGAAGGCCAUGUGUAUG [Ex FMN B 25]
344
